Value source: patent EP0728012B1

# % Inhibition of colony formation values compiled below
Tested on: PC3 human prostate carcinoma cell line
Experiment Summary: Inhibition of colony formation (dose-survival relation, Example 18)
Format: cell-based
Protocol Conditions: 50 µM
Non-standard residues stand in square brackets, D forms with d. Residues, ends and D or L forms follow the SMILES beside them. Groups on a side chain read outwards from the residue. *: point of attachment. dPhe(4-Cl) = N[C@H](Cc1ccc(Cl)cc1)C(=O)O; pGlu = O=C1CC[C@@H](C(=O)O)N1; NEt2 = CCN(CC)*
Give the number; % is assumed, so skip it.

• CC(C)C[C@H](NC(=O)[C@@H](CCCCN)NC(=O)[C@H](Cc1ccc(O)cc1)NC(=O)[C@H](CO)NC(=O)[C@@H](Cc1c[nH]c2ccccc12)NC(=O)[C@@H](Cc1ccccc1)NC(=O)[C@@H]1CCC(=O)N1)C(=O)N[C@@H](CCCNC(=N)N)C(=O)N1CCC[C@H]1C(=O)NCC(N)=O [SJ-1004, D-Phe^2,D-Trp^3,D-Lys^6-hGnRH, reference compound] ([pGlu][dF][dW]SY[dK]LRPG-NH2) = 0
• CC(=O)N[C@H](Cc1c[nH]c2ccccc12)C(=O)N[C@H](Cc1ccc(Cl)cc1)C(=O)N[C@H](Cc1c[nH]c2ccccc12)C(=O)N[C@@H](CO)C(=O)N[C@@H](Cc1ccc(O)cc1)C(=O)N[C@H](CCCCN)C(=O)N[C@@H](CC(C)C)C(=O)N[C@@H](CCCNC(=N)N)C(=O)N1CCC[C@H]1C(=O)N[C@H](C)C(N)=O [MI-1544, reference compound] (Ac-[dW][dPhe(4-Cl)][dW]SY[dK]LRP[dA]-NH2) = 20
• CCN(CC)C(=O)[C@H](CC(=O)N[C@@H](CC(C)C)C(=O)N[C@@H](CCC(N)=O)C(=O)N1CCC[C@H]1C(=O)N[C@H](C)C(N)=O)NC(=O)[C@H](CCCCN)NC(=O)[C@H](CO)NC(=O)[C@@H](Cc1c[nH]c2ccccc12)NC(=O)[C@@H](Cc1ccc(Cl)cc1)NC(=O)[C@@H](Cc1c[nH]c2ccccc12)NC(C)=O [MI-1892, reference compound] (Ac-[dW][dPhe(4-Cl)][dW]SKD([Leu-Gln-Pro-dA-NH2])-NEt2) = 5

Turning to the following molecule.
Query: Give the observed % Inhibition of colony formation of NCCCC[C@H](NC(=O)[C@H](Cc1c[nH]c2ccccc12)NC(=O)[C@H](CC(=O)O)NC(=O)[C@H](Cc1c[nH]cn1)NC(=O)[C@H](CO)NC(=O)[C@H](Cc1c[nH]c2ccccc12)NC(=O)[C@H](Cc1c[nH]cn1)NC(=O)[C@@H]1CCC(=O)N1)C(=O)N1CCC[C@H]1C(=O)NCC(N)=O [GnRH-III, reference compound] for PC3 human prostate carcinoma cell line.
Result: 21

---

Tested on: PC3
Experiment Summary: Inhibition of colony formation by GnRH analogues (dose-survival, Example 48)
Assay type: cell-based, human
Protocol Conditions: within the dose range used (1-50 µM)
Observation Type: inhibition of colony formation

* NCCCC[C@H](NC(=O)[C@H](Cc1c[nH]c2ccccc12)NC(=O)[C@H](Cc1c[nH]cn1)NC(=O)[C@@H]1CCC(=O)N1)C(=O)N[C@@H](Cc1c[nH]cn1)C(=O)N[C@@H](CC(=O)O)C(=O)N[C@@H](Cc1c[nH]c2ccccc12)C(=O)N[C@@H](CCCCN)C(=O)N1CCC[C@H]1C(=O)NCC(N)=O [6. Lys^4-GnRH-III, Lys^4-GnRH-III] | did not influence
* NCCCC[C@H](NC(=O)[C@H](Cc1c[nH]c2ccccc12)NC(=O)[C@H](CC(=O)O)NC(=O)[C@H](Cc1c[nH]cn1)NC(=O)[C@H](CO)NC(=O)[C@H](Cc1c[nH]c2ccccc12)NC(=O)[C@H](Cc1c[nH]cn1)NC(=O)[C@@H]1CCC(=O)N1)C(=O)N1CCC[C@H]1C(=O)NCC(N)=O [GnRH-III, reference compound] | 21%
* CC(=O)NCCCC[C@H](NC(=O)[C@H](Cc1c[nH]c2ccccc12)NC(=O)[C@H](Cc1c[nH]cn1)NC(=O)[C@@H]1CCC(=O)N1)C(=O)N[C@@H](Cc1c[nH]cn1)C(=O)N[C@@H](CC(=O)O)C(=O)N[C@@H](Cc1c[nH]c2ccccc12)C(=O)N[C@@H](CCCCN)C(=O)N1CCC[C@H]1C(=O)NCC(N)=O [7. [Lys(ε-AC)]^4 GnRH-III, [Lys(î-Ac)]^4 -GnRH-III] | did not influence

---

Tested on: PC3 human prostate carcinoma cell line
Experiment Summary: Inhibition of colony formation (dose-survival relation, Example 18)
Format: cell-based
Protocol Conditions: 50 µM
Observation Type: % Inhibition of colony formation (%)
Give the number; % is assumed, so skip it.

Examples with their reported % Inhibition of colony formation follow.
• Ac-D-Trp^1,3,D-Cpa^2,{Lys(n-poly-(N-vinylpyrrolidone-co-maleic acid)-Gly-Phe-Leu-Gly]}^6,D-Ala^10-GnRH [P-GFLG-1544] = 100
• D-Phe^2,D-Trp^3,{D-Lys[n-poly(N-vinylpyrrolidone-co-maleic acid)-Gly-Phe-Leu-Gly]}^6,-GnRH [P-GFLG-1004] = 100
• {Lys[n-poly(N-vinylpyrrolidone-co-maleic acid)-Gly-Phe-Leu-Gly-]}^8,-GnRH-III [P-GFLG-GnRH-III] = 16

Turning to the following substance.
Query: Give the observed % Inhibition of colony formation of {Lys[n-poly(N-vinylpyrrolidone-co-maleic acid)-Gly-Phe-Leu-Gly-]}^5,cyclo(Asp^6-Lys^8)-GnRH-III [P-GFLG-Lys^5-cyclo(Asp^6,Lys^8)-GnRH-III] for PC3 human prostate carcinoma cell line.
Result: 100

---

Tested on: MDA-MB-231
Experiment Summary: Inhibition of colony formation by GnRH analogues (dose-survival, Example 48)
Type: cell-based, human
Protocol Conditions: 50 µM
Non-standard residues stand in square brackets, D forms with d. Residues, ends and D or L forms follow the SMILES beside them. pGlu = O=C1CC[C@@H](C(=O)O)N1
# % Inhibition of the colony formation values compiled below
Give the number; % is assumed, so skip it.

Examples with their reported % Inhibition of the colony formation follow.
* NCCCC[C@H](NC(=O)[C@H](CO)NC(=O)[C@H](Cc1c[nH]c2ccccc12)NC(=O)[C@H](Cc1c[nH]cn1)NC(=O)[C@@H]1CCC(=O)N1)C(=O)N[C@@H](CC(=O)O)C(=O)N[C@@H](Cc1c[nH]c2ccccc12)C(=O)N[C@@H](CCCCN)C(=O)N1CCC[C@H]1C(=O)NCC(N)=O | 0
* NCCCC[C@H](NC(=O)[C@H](Cc1ccccc1)NC(=O)[C@H](CC(=O)O)NC(=O)[C@H](Cc1c[nH]cn1)NC(=O)[C@H](CO)NC(=O)[C@H](Cc1c[nH]c2ccccc12)NC(=O)[C@H](Cc1c[nH]cn1)NC(=O)[C@@H]1CCC(=O)N1)C(=O)N1CCC[C@H]1C(=O)NCC(N)=O | 21
* NCCCC[C@H](NC(=O)[C@H](Cc1c[nH]c2ccccc12)NC(=O)[C@H](CCC(=O)O)NC(=O)[C@H](Cc1c[nH]cn1)NC(=O)[C@H](CO)NC(=O)[C@H](Cc1c[nH]c2ccccc12)NC(=O)[C@H](Cc1c[nH]cn1)NC(=O)[C@@H]1CCC(=O)N1)C(=O)N1CCC[C@H]1C(=O)NCC(N)=O | 25
* CC(C)C[C@H](NC(=O)[C@@H](Cc1c[nH]c2ccccc12)NC(=O)[C@H](CCCCN)NC(=O)[C@H](CO)NC(=O)[C@H](Cc1c[nH]c2ccccc12)NC(=O)[C@H](Cc1c[nH]cn1)NC(=O)[C@@H]1CCC(=O)N1)C(=O)N[C@@H](CCCNC(=N)N)C(=O)N1CCC[C@H]1C(=O)NCC(N)=O [17. Lys^5-DTrp^6-hGnRH, Lys^5,D-Trp^6-hGnRH] ([pGlu]HWSK[dW]LRPG-NH2) | 63
* NCCCC[C@H](NC(=O)[C@H](Cc1c[nH]c2ccccc12)NC(=O)[C@H](CC(=O)O)NC(=O)[C@H](Cc1c[nH]cn1)NC(=O)[C@H](CO)NC(=O)[C@H](Cc1c[nH]c2ccccc12)NC(=O)[C@H](Cc1c[nH]cn1)NC(=O)[C@@H]1CCC(=O)N1)C(=O)N1CCC[C@H]1C(=O)NCC(N)=O [GnRH-III, reference compound] | 49

Query: Specify reported % Inhibition of the colony formation for the compound shown: CC(=O)NCCCC[C@H](NC(=O)[C@H](Cc1c[nH]c2ccccc12)NC(=O)[C@H](Cc1c[nH]cn1)NC(=O)[C@@H]1CCC(=O)N1)C(=O)N[C@@H](Cc1c[nH]cn1)C(=O)N[C@@H](CC(=O)O)C(=O)N[C@@H](Cc1c[nH]c2ccccc12)C(=O)N[C@@H](CCCCN)C(=O)N1CCC[C@H]1C(=O)NCC(N)=O [7. [Lys(ε-AC)]^4 GnRH-III, [Lys(î-Ac)]^4 -GnRH-III]
Result: 42

Query: Specify reported % Inhibition of the colony formation for the compound shown: NCCCC[C@H](NC(=O)[C@H](Cc1c[nH]c2ccccc12)NC(=O)[C@H](Cc1c[nH]cn1)NC(=O)[C@@H]1CCC(=O)N1)C(=O)N[C@@H](Cc1c[nH]cn1)C(=O)N[C@@H](CC(=O)O)C(=O)N[C@@H](Cc1c[nH]c2ccccc12)C(=O)N[C@@H](CCCCN)C(=O)N1CCC[C@H]1C(=O)NCC(N)=O
Result: 35
